run.description: clinical
measurement.conditions: male, human, plasma, oral, 500 g, AUC, plasma, time 0 to 6 h, after 500 g mango flesh, n = 12, mean ± SD
Provide the reported AUC of each item.
Quick note: give the figure in ng·h/mL, leave out the unit.

Ask: May I ask what AUC has been recorded for O=C(/C=C/c1ccc(O)c(O)c1)O[C@@H]1C[C@](O)(C(=O)O)C[C@@H](O)[C@H]1O ?
Result: 209

Ask: Requested read-out: AUC. Entry: O=C(O)c1ccc(O)c(O)c1
Result: 141

###

run.description: clinical
measurement.conditions: male, human, plasma, oral, 721 g, AUC, plasma, time 0 to 6 h, after 721 g mango juice, n = 12, mean ± SD
readout: AUC (ng·h/mL)
Hi! Could you send only the number? It should be in ng·h/mL, unit omitted.

Ask: Report AUC for O=C(/C=C/c1ccc(O)c(O)c1)O[C@@H]1C[C@](O)(C(=O)O)C[C@@H](O)[C@H]1O please.
Result: 367

Ask: Need AUC, item O=C(O)c1ccc(O)c(O)c1
Result: 109

Reference for the values: paper PMC5691699
